From: patent US20200270309A1

System: IL-1β production by mouse peritoneal macrophages
Assay: IL-1β production by mouse peritoneal macrophages (ELISA)
Format: cell-based
Details: dose 0.05 μM; mouse peritoneal macrophages, 48 h, ELISA
Protocol: Mice were injected intraperitoneally with 1 mL of broth culture medium (containing 6% of starch). Three days later, mice peritoneal macrophages were taken aseptically and washed twice with 1640 culture medium, and the cell concentration was adjusted to 2×10^6 cells/mL. The solutions were injected into 24-well culture plates at 1 mL per well. The cells were incubated in a cell incubator for 3 h and vibrated once every 30 min to make the cells fully adhere to the wall. […]
Peptide text beside a SMILES is read from it. * marks the point of attachment. X84 = O=C1C=CC(=O)N1c1ccccc1CCCCCCCCCCCCC(=O)*; X55 = O=C1C=CC(=O)N1c1ccccc1CCCCCCCCC(=O)*; X79 = O=C1C=CC(=O)N1c1cccc(CCC(=O)*)c1
Measured Attribute: IL-1β (pg/mL)

>>> quantitative_result("C[C@H](NC(=O)CNC(=O)[C@H](CCCNC(=N)N)NC(=O)CCCCCCCCc1ccccc1N1C(=O)C=CC1=O)C(=O)N[C@@H](CC(=O)O)C(=O)N[C@@H](CCCNC(=N)N)C(=O)N[C@@H](C)C(=O)NCC(=O)NCC(=O)NCC(=O)NCC(=O)N[C@@H](CCCNC(=N)N)C(=O)NCC(=O)N[C@@H](CC(=O)O)C(=O)O [X20] (X55-RGADRAGGGGRGD-OH)")
772.72
>>> quantitative_result("C[C@H](NC(=O)CNC(=O)[C@H](CCCNC(=N)N)NC(=O)CCc1cccc(N2C(=O)C=CC2=O)c1)C(=O)N[C@@H](CC(=O)O)C(=O)N[C@@H](CCCNC(=N)N)C(=O)N[C@@H](C)C(=O)NCC(=O)NCC(=O)NCC(=O)NCC(=O)N[C@@H](CCCNC(=N)N)C(=O)NCC(=O)N[C@@H](CC(=O)O)C(=O)O [X26] (X79-RGADRAGGGGRGD-OH)")
769.33
>>> quantitative_result("C[C@H](NC(=O)CNC(=O)[C@H](CCCNC(=N)N)NC(=O)CCCCCCCCCCCCc1ccccc1N1C(=O)C=CC1=O)C(=O)N[C@@H](CC(=O)O)C(=O)N[C@@H](CCCNC(=N)N)C(=O)N[C@@H](C)C(=O)NCC(=O)NCC(=O)NCC(=O)NCC(=O)N[C@@H](CCCNC(=N)N)C(=O)NCC(=O)N[C@@H](CC(=O)O)C(=O)O [X24] (X84-RGADRAGGGGRGD-OH)")
659.97

----------
half-life for assorted compounds
Assay: Half-lives and pharmacokinetic parameters of polypeptides vs HM-1
Details: in vivo, T1/2β (half-life)
Peptide text beside a SMILES is read from it. * marks the point of attachment. X41 = O=C1C=CC(=O)N1c1ccc(CCCCCCCCCCCCC(=O)*)cc1; X36 = O=C1C=CC(=O)N1c1ccc(CCCCCCCCCCCC(=O)*)cc1; X66 = O=C1C=CC(=O)N1c1cccc(CCCCCCCC(=O)*)c1; X37 = O=C1C=CC(=O)N1c1ccc(CCCCCC(=O)*)cc1; X52 = O=C1C=CC(=O)N1c1ccccc1CCCCCCCC(=O)*; X16 = O=C1C=CC(=O)N1CCOCCOCCCCCCC(=O)*
Measured Attribute: half-life (h)

>>> quantitative_result("C[C@H](NC(=O)CNC(=O)[C@H](CCCNC(=N)N)NC(=O)CCCCCCCCCCCCc1ccc(N2C(=O)C=CC2=O)cc1)C(=O)N[C@@H](CC(=O)O)C(=O)N[C@@H](CCCNC(=N)N)C(=O)N[C@@H](C)C(=O)NCC(=O)NCC(=O)NCC(=O)NCC(=O)N[C@@H](CCCNC(=N)N)C(=O)NCC(=O)N[C@@H](CC(=O)O)C(=O)O [X48] (X41-RGADRAGGGGRGD-OH)")
36.6
>>> quantitative_result("C[C@H](NC(=O)CNC(=O)[C@H](CCCNC(=N)N)NC(=O)CCCCCCCc1ccccc1N1C(=O)C=CC1=O)C(=O)N[C@@H](CC(=O)O)C(=O)N[C@@H](CCCNC(=N)N)C(=O)N[C@@H](C)C(=O)NCC(=O)NCC(=O)NCC(=O)NCC(=O)N[C@@H](CCCNC(=N)N)C(=O)NCC(=O)N[C@@H](CC(=O)O)C(=O)O [X19] (X52-RGADRAGGGGRGD-OH)")
40
>>> quantitative_result("C[C@H](NC(=O)CNC(=O)[C@H](CCCNC(=N)N)NC(=O)CCCCCCCc1cccc(N2C(=O)C=CC2=O)c1)C(=O)N[C@@H](CC(=O)O)C(=O)N[C@@H](CCCNC(=N)N)C(=O)N[C@@H](C)C(=O)NCC(=O)NCC(=O)NCC(=O)NCC(=O)N[C@@H](CCCNC(=N)N)C(=O)NCC(=O)N[C@@H](CC(=O)O)C(=O)O [X31] (X66-RGADRAGGGGRGD-OH)")
35.6
>>> quantitative_result("C[C@H](NC(=O)CNC(=O)[C@H](CCCNC(=N)N)NC(=O)CCCCCCOCCOCCN1C(=O)C=CC1=O)C(=O)N[C@@H](CC(=O)O)C(=O)N[C@@H](CCCNC(=N)N)C(=O)N[C@@H](C)C(=O)NCC(=O)NCC(=O)NCC(=O)NCC(=O)N[C@@H](CCCNC(=N)N)C(=O)NCC(=O)N[C@@H](CC(=O)O)C(=O)O [X61] (X16-RGADRAGGGGRGD-OH)")
31.7
>>> quantitative_result("C[C@H](NC(=O)CNC(=O)[C@H](CCCNC(=N)N)NC(=O)CCCCCCCCCCCc1ccc(N2C(=O)C=CC2=O)cc1)C(=O)N[C@@H](CC(=O)O)C(=O)N[C@@H](CCCNC(=N)N)C(=O)N[C@@H](C)C(=O)NCC(=O)NCC(=O)NCC(=O)NCC(=O)N[C@@H](CCCNC(=N)N)C(=O)NCC(=O)N[C@@H](CC(=O)O)C(=O)O [X47] (X36-RGADRAGGGGRGD-OH)")
41.2
>>> quantitative_result("C[C@H](NC(=O)CNC(=O)[C@H](CCCNC(=N)N)NC(=O)CCCCCc1ccc(N2C(=O)C=CC2=O)cc1)C(=O)N[C@@H](CC(=O)O)C(=O)N[C@@H](CCCNC(=N)N)C(=O)N[C@@H](C)C(=O)NCC(=O)NCC(=O)NCC(=O)NCC(=O)N[C@@H](CCCNC(=N)N)C(=O)NCC(=O)N[C@@H](CC(=O)O)C(=O)O [X41] (X37-RGADRAGGGGRGD-OH)")
32.9

----------
System: adjuvant arthritis
Test: Rat adjuvant arthritis (AA) animal model
Format: in vivo, SD rats
Conditions: 4.0 mg/kg, intravenous in the tail once every five days from day 10, mean±SD
Peptide text beside a SMILES is read from it. * marks the point of attachment. X66 = O=C1C=CC(=O)N1c1cccc(CCCCCCCC(=O)*)c1; X71 = O=C1C=CC(=O)N1c1cccc(CCCCCC(=O)*)c1; X49 = O=C1C=CC(=O)N1c1ccccc1CCCCCC(=O)*
Left and right paw swelling degree for assorted compounds
Measured Attribute: Left and right paw swelling degree (mm)

>>> quantitative_result("C[C@H](NC(=O)CNC(=O)[C@H](CCCNC(=N)N)NC(=O)CCCCCCCc1cccc(N2C(=O)C=CC2=O)c1)C(=O)N[C@@H](CC(=O)O)C(=O)N[C@@H](CCCNC(=N)N)C(=O)N[C@@H](C)C(=O)NCC(=O)NCC(=O)NCC(=O)NCC(=O)N[C@@H](CCCNC(=N)N)C(=O)NCC(=O)N[C@@H](CC(=O)O)C(=O)O [X31] (X66-RGADRAGGGGRGD-OH)")
3.72
>>> quantitative_result("C[C@H](NC(=O)CNC(=O)[C@H](CCCNC(=N)N)NC(=O)CCCCCc1cccc(N2C(=O)C=CC2=O)c1)C(=O)N[C@@H](CC(=O)O)C(=O)N[C@@H](CCCNC(=N)N)C(=O)N[C@@H](C)C(=O)NCC(=O)NCC(=O)NCC(=O)NCC(=O)N[C@@H](CCCNC(=N)N)C(=O)NCC(=O)N[C@@H](CC(=O)O)C(=O)O [X29] (X71-RGADRAGGGGRGD-OH)")
3.72
>>> quantitative_result("C[C@H](NC(=O)CNC(=O)[C@H](CCCNC(=N)N)NC(=O)CCCCCc1ccccc1N1C(=O)C=CC1=O)C(=O)N[C@@H](CC(=O)O)C(=O)N[C@@H](CCCNC(=N)N)C(=O)N[C@@H](C)C(=O)NCC(=O)NCC(=O)NCC(=O)NCC(=O)N[C@@H](CCCNC(=N)N)C(=O)NCC(=O)N[C@@H](CC(=O)O)C(=O)O [X17] (X49-RGADRAGGGGRGD-OH)")
3.84

----------
Experiment: Half-lives and pharmacokinetic parameters of polypeptides vs HM-1
Conditions: in vivo
Peptide text beside a SMILES is read from it. * marks the point of attachment. X29 = O=C1C=CC(=O)N1CCOCCOCCOCCOCCOCCOCCCC(=O)*; X53 = O=C1C=CC(=O)N1CCOCCOCCOCCOCCCCCCC(=O)*; X33 = O=C1C=CC(=O)N1CCOCCOCCOCCCCC(=O)*; X70 = O=C1C=CC(=O)N1CCOCCOCCOCCCC(=O)*; X13 = O=C1C=CC(=O)N1CCOCCCCCC(=O)*; X30 = O=C1C=CC(=O)N1CCOCCOCC(=O)*
Measured Attribute: AUC(0-inf) (ng·h/mL)

>>> quantitative_result("C[C@H](NC(=O)CNC(=O)[C@H](CCCNC(=N)N)NC(=O)CCCCCOCCN1C(=O)C=CC1=O)C(=O)N[C@@H](CC(=O)O)C(=O)N[C@@H](CCCNC(=N)N)C(=O)N[C@@H](C)C(=O)NCC(=O)NCC(=O)NCC(=O)NCC(=O)N[C@@H](CCCNC(=N)N)C(=O)NCC(=O)N[C@@H](CC(=O)O)C(=O)O [X53] (X13-RGADRAGGGGRGD-OH)")
31100
>>> quantitative_result("C[C@H](NC(=O)CNC(=O)[C@H](CCCNC(=N)N)NC(=O)CCCOCCOCCOCCOCCOCCOCCN1C(=O)C=CC1=O)C(=O)N[C@@H](CC(=O)O)C(=O)N[C@@H](CCCNC(=N)N)C(=O)N[C@@H](C)C(=O)NCC(=O)NCC(=O)NCC(=O)NCC(=O)N[C@@H](CCCNC(=N)N)C(=O)NCC(=O)N[C@@H](CC(=O)O)C(=O)O [X86] (X29-RGADRAGGGGRGD-OH)")
25800
>>> quantitative_result("C[C@H](NC(=O)CNC(=O)[C@H](CCCNC(=N)N)NC(=O)CCCCCCOCCOCCOCCOCCN1C(=O)C=CC1=O)C(=O)N[C@@H](CC(=O)O)C(=O)N[C@@H](CCCNC(=N)N)C(=O)N[C@@H](C)C(=O)NCC(=O)NCC(=O)NCC(=O)NCC(=O)N[C@@H](CCCNC(=N)N)C(=O)NCC(=O)N[C@@H](CC(=O)O)C(=O)O [X75] (X53-RGADRAGGGGRGD-OH)")
26700
>>> quantitative_result("C[C@H](NC(=O)CNC(=O)[C@H](CCCNC(=N)N)NC(=O)CCCOCCOCCOCCN1C(=O)C=CC1=O)C(=O)N[C@@H](CC(=O)O)C(=O)N[C@@H](CCCNC(=N)N)C(=O)N[C@@H](C)C(=O)NCC(=O)NCC(=O)NCC(=O)NCC(=O)N[C@@H](CCCNC(=N)N)C(=O)NCC(=O)N[C@@H](CC(=O)O)C(=O)O [X65] (X70-RGADRAGGGGRGD-OH)")
31800
>>> quantitative_result("C[C@H](NC(=O)CNC(=O)[C@H](CCCNC(=N)N)NC(=O)COCCOCCN1C(=O)C=CC1=O)C(=O)N[C@@H](CC(=O)O)C(=O)N[C@@H](CCCNC(=N)N)C(=O)N[C@@H](C)C(=O)NCC(=O)NCC(=O)NCC(=O)NCC(=O)N[C@@H](CCCNC(=N)N)C(=O)NCC(=O)N[C@@H](CC(=O)O)C(=O)O [X56] (X30-RGADRAGGGGRGD-OH)")
32900
>>> quantitative_result("C[C@H](NC(=O)CNC(=O)[C@H](CCCNC(=N)N)NC(=O)CCCCOCCOCCOCCN1C(=O)C=CC1=O)C(=O)N[C@@H](CC(=O)O)C(=O)N[C@@H](CCCNC(=N)N)C(=O)N[C@@H](C)C(=O)NCC(=O)NCC(=O)NCC(=O)NCC(=O)N[C@@H](CCCNC(=N)N)C(=O)NCC(=O)N[C@@H](CC(=O)O)C(=O)O [X66] (X33-RGADRAGGGGRGD-OH)")
27700
